Measured IC50 accompanies every entry in the list below.
Tested on: NCI-H1651;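 further: Read-out is a cell viability assay, with IC50 expressing inhibition of NCI-H1651 cell growth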
procedure text: cells
Assay type: functional, cell-based
condition parameters: Homo sapiens
Description: SANGER: Inhibition of human NCI-H1651 cell growth in a cell viability assay.

Examples from the recorded data:
# structure, IC50
measured = [
    ("COc1cc(Nc2c(C#N)cnc3cc(OCCCN4CCN(C)CC4)c(OC)cc23)c(Cl)cc1Cl", "> 2000 nM"),
    ("O=c1[nH]c2ccccc2n1C1CCN(Cc2ccc(-c3nc4cc5[nH]cnc5cc4nc3-c3ccccc3)cc2)CC1", "> 2560 nM"),
    ("Fc1cc(-c2cc[nH]/c(=N/c3ccc(-n4cnc(N5CCOCC5)n4)cc3)n2)cc(N2CCOCC2)c1", "1070 nM"),
]

// recorded IC50 for `Cn1c(=O)n(-c2ccc(C(C)(C)C#N)cc2)c2c3cc(-c4cnc5ccccc5c4)ccc3ncc21` : 344 nM

// recorded IC50 for `C/C(O)=C(\C#N)C(=O)Nc1cc(Br)ccc1Br` : > 16000 nM

// recorded IC50 for `CC(=O)c1c(C)c2cnc(Nc3ccc(N4CCNCC4)cn3)nc2n(C2CCCC2)c1=O` : > 4000 nM

* * *

Tested on: OVCAR-5;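 further: growth inhibition of human OVCAR-5 cells, read out with a cell viability assay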
procedure text: cells
Type: functional, cell-based
condition parameters: Homo sapiens
Description: SANGER: Inhibition of human OVCAR-5 cell growth in a cell viability assay.
assay readout: IC50 (nM)
Lab book: enter the figure in nM, no units written.

# structure, IC50 (nM)
rows = [
    ("C[C@]12O[C@H](C[C@]1(O)CO)n1c3ccccc3c3c4c(c5c6ccccc6n2c5c31)CNC4=O", 504),
    ("CC[C@]1(O)C[C@@H]2CN(CCc3c([nH]c4ccccc34)[C@@](C(=O)OC)(c3cc4c(cc3OC)N(C)[C@H]3[C@@](O)(C(=O)OC)[C@H](OC(C)=O)[C@]5(CC)C=CCN6CC[C@]43[C@@H]65)C2)C1", 13.6),
]

// recorded IC50 for `CC[C@@]1(O)C(=O)OCc2c1cc1n(c2=O)Cc2cc3ccccc3nc2-1` : 43.3

* * *

Measured IC50 accompanies every entry in the list below.
Test system: T84;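 further: growth inhibition measured with a cell viability readout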
procedure text: cells
Assay type: functional, cell-based
condition parameters: Homo sapiens
Description: SANGER: Inhibition of human T84 cell growth in a cell viability assay.

// recorded IC50 for `Cn1c(=O)n(-c2ccc(C(C)(C)C#N)cc2)c2c3cc(-c4cnc5ccccc5c4)ccc3ncc21` : > 2 µM

* * *

System: RS4-11;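 further: growth inhibition of RS4-11 cells, read out by a cell viability assay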
procedure text: cells
Assay type: functional, cell-based
condition parameters: Homo sapiens
Description: SANGER: Inhibition of human RS4-11 cell growth in a cell viability assay.
Measured IC50 accompanies every entry in the list below.

Examples from the recorded data:
# molecule, assay readout, reported measurement
records = [
    ("CC[C@@]1(O)C(=O)OCc2c1cc1n(c2=O)Cc2cc3ccccc3nc2-1 [CAMPTOTHECIN]", "IC50", "0.902 nM"),
    ("C/C=C(/C)C(=O)O[C@H]1C(C)=C2[C@H]([C@@H]1OC(=O)CCCCCCC)[C@@](C)(OC(C)=O)C[C@H](OC(=O)CCC)[C@@]1(O)[C@H]2OC(=O)[C@@]1(C)O [THAPSIGARGIN]", "IC50", "1.3 nM"),
    ("C/C(O)=C(\\C#N)C(=O)Nc1cc(Br)ccc1Br", "IC50", "> 16000 nM"),
]

Query molecule follows.
// recorded IC50 for C[C@]12O[C@H](C[C@]1(O)CO)n1c3ccccc3c3c4c(c5c6ccccc6n2c5c31)CNC4=O [LESTAURTINIB] : 61.9 nM

* * *

Measured pIC50 accompanies every entry in the list below.
Test system: HEL
procedure text: cells
Assay type: functional, cell-based
condition parameters: Homo sapiens
Description: SANGER: Inhibition of human HEL cell growth in a cell viability assay.
// field semantics: pIC50 = negative decimal log of concentration (mol/L)

Examples from the recorded data:
# compound, assay readout, reported measurement
records = [
    ("CO[C@@]12[C@H](COC(N)=O)C3=C(C(=O)C(C)=C(N)C3=O)N1C[C@@H]1N[C@@H]12 [MITOMYCIN]", "pIC50", 7.45),
    ("C/C=C(/C)C(=O)O[C@H]1C(C)=C2[C@H]([C@@H]1OC(=O)CCCCCCC)[C@@](C)(OC(C)=O)C[C@H](OC(=O)CCC)[C@@]1(O)[C@H]2OC(=O)[C@@]1(C)O [THAPSIGARGIN]", "pIC50", 7.33),
    ("Cc1n[nH]c2ccc(-c3cncc(OC[C@@H](N)Cc4c[nH]c5ccccc45)c3)cc12 [A-443654]", "pIC50", 6.37),
    ("CC[C@@]1(O)C(=O)OCc2c1cc1n(c2=O)Cc2cc3ccccc3nc2-1 [CAMPTOTHECIN]", "pIC50", 8.20),
]

HEL assay, compound `NC(=O)c1ncn([C@@H]2O[C@H](COP(=O)(O)O)[C@@H](O)[C@H]2O)c1N` , recorded pIC50 = 3.09

HEL assay, compound CC(=O)c1c(C)c2cnc(Nc3ccc(N4CCNCC4)cn3)nc2n(C2CCCC2)c1=O [PALBOCICLIB] , recorded pIC50 = 5.89

HEL assay, compound CC[C@]1(O)C[C@@H]2CN(CCc3c([nH]c4ccccc34)[C@@](C(=O)OC)(c3cc4c(cc3OC)N(C)[C@H]3[C@@](O)(C(=O)OC)[C@H](OC(C)=O)[C@]5(CC)C=CCN6CC[C@]43[C@@H]65)C2)C1 [VINBLASTINE] , recorded pIC50 = 7.48

* * *

System: HCC1599;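 further: growth inhibition of HCC1599 cells, read out in a cell viability assay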
procedure text: cells
Assay type: functional, cell-based
condition parameters: Homo sapiens
Description: SANGER: Inhibition of human HCC1599 cell growth in a cell viability assay.
assay readout: pIC50
// field semantics: pIC50 = negative decimal log of concentration (mol/L)

# structure, pIC50
measured = [
    ("C/C=C(/C)C(=O)O[C@H]1C(C)=C2[C@H]([C@@H]1OC(=O)CCCCCCC)[C@@](C)(OC(C)=O)C[C@H](OC(=O)CCC)[C@@]1(O)[C@H]2OC(=O)[C@@]1(C)O", 6.71),
]

Query compound follows.
// recorded pIC50 for `CO[C@@]12[C@H](COC(N)=O)C3=C(C(=O)C(C)=C(N)C3=O)N1C[C@@H]1N[C@@H]12` : 6.92

* * *

Tested on: LS-1034
procedure text: cells
Format: functional, cell-based
condition parameters: Homo sapiens
Description: SANGER: Inhibition of human LS-1034 cell growth in a cell viability assay.
Measured IC50 accompanies every entry in the list below.

LS-1034 assay, molecule CCCS(=O)(=O)Nc1ccc(F)c(C(=O)c2c[nH]c3ncc(Cl)cc23)c1F [PLX-4720] , recorded IC50 = > 10 µM

LS-1034 assay, molecule C[C@]12O[C@H](C[C@]1(O)CO)n1c3ccccc3c3c4c(c5c6ccccc6n2c5c31)CNC4=O [LESTAURTINIB] , recorded IC50 = > 2 µM

LS-1034 assay, molecule `CCNc1cc(N[C@H]2CC[C@@H](O)CC2)nc(Nc2ccc3c(ccn3Cc3ccccc3)c2)n1` , recorded IC50 = > 5.12 µM

LS-1034 assay, molecule `C/C(O)=C(\C#N)C(=O)Nc1cc(Br)ccc1Br` , recorded IC50 = > 16 µM

* * *

System: SK-MEL-30;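 further: growth inhibition of SK-MEL-30 cells, determined with a cell viability assay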
procedure text: cells
Assay type: functional, cell-based
condition parameters: Homo sapiens
Description: SANGER: Inhibition of human SK-MEL-30 cell growth in a cell viability assay.
assay readout: IC50 (nM)
Lab book: enter the figure in nM, no units written.

Examples from the recorded data:
# compound, experimental system, IC50, nM
records = [
    ("CCNC(=O)c1noc(-c2cc(C(C)C)c(O)cc2O)c1-c1ccc(CN2CCOCC2)cc1 [LUMINESPIB]", "SK-MEL-30", 43.6),
    ("Cn1c(=O)n(-c2ccc(C(C)(C)C#N)cc2)c2c3cc(-c4cnc5ccccc5c4)ccc3ncc21 [DACTOLISIB]", "SK-MEL-30", 196),
    ("C/C=C(/C)C(=O)O[C@H]1C(C)=C2[C@H]([C@@H]1OC(=O)CCCCCCC)[C@@](C)(OC(C)=O)C[C@H](OC(=O)CCC)[C@@]1(O)[C@H]2OC(=O)[C@@]1(C)O [THAPSIGARGIN]", "SK-MEL-30", 3.24),
]

Query compound follows.
// recorded IC50 for C[C@]12O[C@H](C[C@]1(O)CO)n1c3ccccc3c3c4c(c5c6ccccc6n2c5c31)CNC4=O [LESTAURTINIB] : 512

* * *

Test system: NCI-H1395;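 further: cell viability assay read-out quantifying reduced proliferation of human NCI-H1395 cells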
procedure text: cells
Assay type: functional, cell-based
condition parameters: Homo sapiens
Description: SANGER: Inhibition of human NCI-H1395 cell growth in a cell viability assay.
pIC50: −log10 of the molar value.
assay readout: pIC50

Examples from the recorded data:
# molecule, pIC50
data = [
    ("CC(C)=CC[C@@H](O)C1=CC(=O)c2c(O)ccc(O)c2C1=O", "< 4.80"),
    ("CC(=O)c1c(C)c2cnc(Nc3ccc(N4CCNCC4)cn3)nc2n(C2CCCC2)c1=O", "< 5.40"),
    ("NC(=O)c1ncn([C@@H]2O[C@H](COP(=O)(O)O)[C@@H](O)[C@H]2O)c1N", "< 2.70"),
    ("CC(O)(CS(=O)(=O)c1ccc(F)cc1)C(=O)Nc1ccc(C#N)c(C(F)(F)F)c1 (configuration not stated) [BICALUTAMIDE]", "< 5.99"),
    ("N#C/C(=C1/Nc2ccccc2S1)c1ccnc(NCCc2cccnc2)n1", "< 5.10"),
    ("C/C=C(/C)C(=O)O[C@H]1C(C)=C2[C@H]([C@@H]1OC(=O)CCCCCCC)[C@@](C)(OC(C)=O)C[C@H](OC(=O)CCC)[C@@]1(O)[C@H]2OC(=O)[C@@]1(C)O", 6.75),
]

Query molecule follows.
// recorded pIC50 for `Fc1cc(-c2cc[nH]/c(=N/c3ccc(-n4cnc(N5CCOCC5)n4)cc3)n2)cc(N2CCOCC2)c1` : < 5.29
